# system_tested: protein kinase
# method_notes: HTS ATP-utilizing enzyme assay, off-chip mobility-shift format (Caliper HTS 250)
# Type: biochemical, human
# measurement_conditions: kinase(s) for which the compound exhibits protein kinase inhibitory activity; test compound 10 μM; active = greater than three-sigma from the mean activity of inactive compounds
measurement_name: Kinase

O=C(O)CSc1nnc(-c2ccco2)n1CC1CCCO1 (stereo not drawn): AURORA-A
COc1ccc(N2CCN(C(=O)CSc3nnc(-c4cc5ccccc5cc4O)n3C)CC2)cc1: DAPK1
COc1ccccc1-n1c(SCC(=O)O)nnc1-c1cccnc1: AURORA-A
COc1ccc(-n2c(SCC(=O)O)nnc2-c2ccc(NC(=O)c3ccccc3)cc2)cc1: CHEK2
Cn1c(S)nnc1COc1ccc2ccccc2c1: GSK3-α

Report Kinase, nothing else, for this compound: `CCn1c(CSc2nc(C)cc(C)n2)nnc1SCC(=O)Nc1nccs1` GSK3-α

Tell me Kinase reported for `O=C(CSc1nnc(-c2cccnc2)[nH]1)c1ccccc1` AURORA-A

Kindly indicate its recorded Kinase. Item: `Cc1ccc(NCc2nnc(SCC#N)n2-c2ccccc2)cc1Cl` AURORA-A

Tell us which Kinase value is on record for CC(Sc1nnc(COc2ccccc2)n1C)C(=O)O (stereo not drawn) AURORA-A

Tell me Kinase reported for `CCOC(=O)CSc1nnc(-c2ccco2)n1-c1ccc(C)cc1` PAK2

====

# Tested on: protein kinase
# method_notes: HTS ATP-utilizing enzyme assay, off-chip mobility-shift format (Caliper HTS 250)
# Type: biochemical, human
# measurement_conditions: test compound 10 μM; active = activity greater than three-sigma from the mean of the predominately inactive population for that enzyme
measurement_name: protein kinase against which the compound exhibits inhibitory activity (Table 3)

CCn1c(C)nnc1SCc1ccccc1: GSK3-α
O=C(O)CCSc1nnc(-c2cccnc2)n1-c1ccccc1: AURORA-A
Oc1ccc(-c2nnc(SCCN3CCCCC3)n2Cc2ccco2)cc1: GSK3-α
COc1ccc(-n2c(COc3ccccc3OC)nnc2SCCC(=O)O)cc1: CDK1

# return recorded protein kinase against which the compound exhibits inhibitory activity (Table 3) for entry `Cc1cc(C)nc(SCc2nnc(SCCC(=O)O)n2-c2ccccc2)n1` CHEK2

Return reported protein kinase against which the compound exhibits inhibitory activity (Table 3). Input compound: `CCn1c(SCc2cc(=O)[nH]c3ccccc23)nnc1-c1cc2ccccc2cc1O` AURORA-A

Identify the reported protein kinase against which the compound exhibits inhibitory activity (Table 3) for the following entry. `Cc1nnc(SCc2ccccc2)n1Cc1ccco1` GSK3-α

====

# system_tested: protein kinase
# method_notes: HTS ATP-utilizing enzyme assay, off-chip mobility-shift format (Caliper HTS 250)
# Type: biochemical, human
# measurement_conditions: kinase(s) for which the compound exhibits protein kinase inhibitory activity; test compound 10 μM; active = greater than three-sigma from the mean activity of inactive compounds
measurement_name: Kinase

Examples with their reported Kinase follow.
CCOC(=O)CSc1nnc(CNc2ccc(C)c(Cl)c2)n1CC1CCCO1 (stereo not shown): CHEK2
N#CCSc1nnc(C2CCCCC2)n1-c1ccccc1: CHEK2
CC(=O)c1ccc(NC(=O)CSc2nnc(C)n2-c2ccccc2)cc1: AKT1
COc1ccccc1-n1c(SCC(=O)O)nnc1-c1ccccc1C: CHEK2

Indicate the recorded Kinase value for this compound: `CCn1c(SCC(=O)O)nnc1-c1ccc(S(=O)(=O)N2CCOCC2)cc1` CDK1

Please indicate Kinase recorded for `CCn1c(SCC(=O)Nc2sc(C)c(C)c2C#N)nnc1-c1ccc(S(=O)(=O)N2CCOCC2)cc1` DAPK1
